- EXPERIMENTAL_SYSTEM: bovine lens AR (Bos taurus)
- Construct: Bovine eyes were obtained from a local abattoir, and the lenses were removed and frozen until needed; from tissue; host or cells: bovine lens from a local abattoir; enzyme purified by ammonium sulfate, DEAE-Sephacel, Matrex gel red A and Sephadex G-75
- PROCEDURE_TEXT: Inhibition of bovine lens aldose reductase (BLAR), NADPH oxidation at 340 nm
- Format: biochemical
- RUN_CONDITIONS: Table 2, IC50 in M multiplied by 10^6
MEASURED_ENDPOINT: IC50 (nM)

COc1c(OC)c(OC)c2c(=O)cc(-c3ccc(O)cc3)oc2c1OC [LARI-2, 4'-hydroxy-5,6,7,8-tetramethoxyflavone]
290

I: COc1c(O)c(OC)c2c(=O)cc(-c3ccc(O)c(O)c3)oc2c1OC
II: COc1c(O)c(OC)c2c(=O)cc(-c3ccc(O)cc3)oc2c1OC [LARI-3, 4',6-dihydroxy-5,7,8-trimethoxyflavone]
Task item: Which record shows the lower IC50: the first, I , or the second, II ? Response format: the label of the selected entry.
Reply: I
(I: 180 nM, II: 420 nM)

----------
- EXPERIMENTAL_SYSTEM: rat lens AR (Rattus norvegicus)
- Construct: Rat lenses were removed from eyes of rats of the Wistar strain; from tissue; host or cells: lens of Wistar rats; enzyme purified by ammonium sulfate, DEAE-Sephacel, Matrex gel red A and Sephadex G-75
- PROCEDURE_TEXT: Inhibition of rat lens aldose reductase (RLAR), NADPH oxidation at 340 nm
- Format: biochemical, rat (Wistar strain)
- RUN_CONDITIONS: Table 2, IC50 in M multiplied by 10^6, read-out: IC50 (M) × 10^6
MEASURED_ENDPOINT: IC50 (M)

COc1c(OC)c(OC)c2c(=O)cc(-c3ccc(O)cc3)oc2c1OC [LARI-2, 4'-hydroxy-5,6,7,8-tetramethoxyflavone]
1.6e-07

I: COc1c(O)c(OC)c2c(=O)cc(-c3ccc(O)c(O)c3)oc2c1OC [LARI-1]
II: COc1c(O)c(OC)c2c(=O)cc(-c3ccc(O)cc3)oc2c1OC [LARI-3, 4',6-dihydroxy-5,7,8-trimethoxyflavone]
Task item: Pick one, I or II : lowest reported IC50. Selection: enter the item's label.
Reply: I
(I: 3.6e-08 M, II: 2.5e-07 M)
